Measured MIC of individual entries
# System: Escherichia coli
# method summary: Antibacterial activity against Escherichia coli BER1 producing beta-lactamase pI 5.2 and pI 5.4 by microdilution method
# Format: functional
Your answer should be a plain number; it is taken to be in µg/mL.

CO/N=C(\C(=O)N[C@@H]1C(=O)N2C(C(=O)O)=C(COC(N)=O)CS[C@H]12)c1ccco1 = 8

Consider now this further compound.
Q: Name the recorded MIC for `CC(=O)OCC1=C(C(=O)O)N2C(=O)[C@@H](NC(=O)Cc3cccs3)[C@H]2SC1` .
A: 32

----------
# method summary: Inhibition of Escherichia coli DH10B beta-lactamase TEM-121 after 10 mins
# Parameters: species or system Escherichia coli str. K-12 substr. DH10B
recorded endpoint: pIC50
Please treat pIC50 as minus the base-10 logarithm of the molar concentration.

Q: Name the recorded pIC50 for `O=C(O)[C@H]1/C(=C/CO)O[C@@H]2CC(=O)N21` .
A: 6.00

----------
Measured MIC of individual entries
# Tested on: Escherichia coli
# method summary: Antibacterial activity against Escherichia coli DH5alpha producing beta-lactamase TEM-158 by microdilution method
# Format: functional
Your answer should be a plain number; it is taken to be in µg/mL.

Examples from the recorded data:
C[C@H]1[C@H](NC(=O)/C(=N\OC(C)(C)C(=O)O)c2csc(N)n2)C(=O)N1S(=O)(=O)O = 1
CO/N=C(\C(=O)N[C@@H]1C(=O)N2C(C(=O)O)=C(COC(N)=O)CS[C@H]12)c1ccco1 = 8

Consider now this further compound.
Q: Recorded MIC for `CO/N=C(\C(=O)N[C@@H]1C(=O)N2C(C(=O)[O-])=C(C[N+]3(C)CCCC3)CS[C@H]12)c1csc(N)n1` with Escherichia coli, please?
A: 4

----------
# System: Escherichia coli
# method summary: Antibacterial activity against Escherichia coli DH5alpha producing beta-lactamase TEM-158 by microdilution method
# Type: functional
Measured MIC of individual entries
Your answer should be a plain number; it is taken to be in µg/mL.

Examples from the recorded data:
CO/N=C(\C(=O)N[C@@H]1C(=O)N2C(C(=O)O)=C(COC(C)=O)CS[C@H]12)c1csc(N)n1 [CEFOTAXIME] = 0.25
CCN1CCN(C(=O)N[C@@H](C(=O)N[C@@H]2C(=O)N3[C@@H]2SC(C)(C)[C@@H]3C(=O)O)c2ccccc2)C(=O)C1=O [PIPERACILLIN] = 2050
CC(=O)OCC1=C(C(=O)O)N2C(=O)[C@@H](NC(=O)Cc3cccs3)[C@H]2SC1 [CEPHALOTHIN] = 32
CC(C)(O/N=C(\C(=O)N[C@@H]1C(=O)N2C(C(=O)[O-])=C(C[n+]3ccccc3)CS[C@H]12)c1csc(N)n1)C(=O)O [CEFTAZIDIME] = 32

Q: Recorded MIC for CO[C@@]1(NC(=O)Cc2cccs2)C(=O)N2C(C(=O)O)=C(COC(N)=O)CS[C@@H]21 [CEFOXITIN] with Escherichia coli, please?
A: 4

----------
# System: Escherichia coli
# method summary: Antibacterial activity against Escherichia coli DH5alpha producing beta-lactamase TEM-12 by microdilution method
# Assay type: functional
recorded endpoint: MIC

Examples from the recorded data:
CC1(C)S[C@@H]2[C@H](NC(=O)[C@H](N)c3ccc(O)cc3)C(=O)N2[C@H]1C(=O)O = > 2050 µg/mL
CCN1CCN(C(=O)N[C@@H](C(=O)N[C@@H]2C(=O)N3[C@@H]2SC(C)(C)[C@@H]3C(=O)O)c2ccccc2)C(=O)C1=O = > 2050 µg/mL

Q: Recorded MIC for `CC1(C)S[C@@H]2[C@H](NC(=O)[C@H](C(=O)O)c3ccsc3)C(=O)N2[C@H]1C(=O)O` with Escherichia coli, please?
A: > 2050 µg/mL
